target: Pim-1 (Homo sapiens); construct: His6-labelled recombinant full-length human Pim-1, Pim-2 or Pim-3 protein; His6; made in house; assay: TR-FRET assay, Pim-1 kinase (phosphorylation of Bad Ser112); type: biochemical; conditions: comparative compounds (Compound No., not claimed); read-out: IC50 Pim1
pIC50: −log10 of the molar value.
Measured Attribute: pIC50

{"Smiles Representation": "COc1cc2c(cn1)[nH]c1cnc(-c3cccnc3)cc12", "Value Observed": "< 5.30"}
{"Smiles Representation": "c1cncc(-c2cnc3[nH]c4ncccc4c3c2)c1", "Value Observed": "< 5.30"}

----------
molecular target: Pim-1 (Homo sapiens, UniProt P11309); construct: His6-labelled recombinant full-length human Pim-1, Pim-2 or Pim-3 protein; His6; made in house; assay: TR-FRET assay, Pim-1 kinase (phosphorylation of Bad Ser112); type: biochemical; settings: TR-FRET; ATP 40 μM; read-out: IC50 Pim1
Sequence (P11309 whole entry): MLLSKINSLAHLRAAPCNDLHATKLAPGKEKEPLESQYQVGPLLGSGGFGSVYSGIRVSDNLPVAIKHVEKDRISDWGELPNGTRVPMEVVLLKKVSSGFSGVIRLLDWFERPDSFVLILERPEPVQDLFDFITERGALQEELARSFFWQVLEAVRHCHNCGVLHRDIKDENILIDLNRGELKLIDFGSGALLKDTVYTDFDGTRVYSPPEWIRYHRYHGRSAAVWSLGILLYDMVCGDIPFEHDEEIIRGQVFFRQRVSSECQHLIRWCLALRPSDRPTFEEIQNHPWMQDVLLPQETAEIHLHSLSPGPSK
pIC50: −log10 of the molar value.
Measured Attribute: pIC50

{"Compound": "O=C(c1c(F)cnc2[nH]c3cnc(-c4cccnc4)cc3c12)N1CCOCC1 [Example 36]", "Value Observed": "6.00 to 7.00"}
{"Compound": "CS(=O)(=O)N1CCN(CCCOc2ccc(-c3cnc4[nH]c5cnc(-c6cccnc6)cc5c4c3)cc2)CC1 [Example 152]", "Value Observed": "7.00 to 9.00"}
{"Compound": "CN(C)CC(=O)N1CCN(c2cccc(-c3cnc4[nH]c5cnc(-c6cccnc6)cc5c4c3)c2)CC1 [Example 134]", "Value Observed": "7.00 to 9.00"}
{"Compound": "Fc1cnc2[nH]c3cnc(-c4ccsc4)cc3c2c1 [Example 162]", "Value Observed": "< 5.30"}
{"Compound": "c1cncc(-c2cc3c(cn2)[nH]c2ncc(-c4cnn(CCN5CCOCC5)c4)cc23)c1 [Example 115]", "Value Observed": "7.00 to 9.00"}
{"Compound": "Cc1csc(-c2c(F)cnc3[nH]c4cnc(-c5cccnc5)cc4c23)c1 [Example 54]", "Value Observed": "7.00 to 9.00"}
{"Compound": "C=CCn1cc(-c2cc3c(cn2)[nH]c2nccc(-c4ccc(C(=O)OC)cc4)c23)cn1 [Example 170]", "Value Observed": "7.00 to 9.00"}
{"Compound": "COc1cnc2[nH]c3cnc(-c4cccnc4)cc3c2c1 [Example 7]", "Value Observed": "7.00 to 9.00"}
{"Compound": "CS(=O)(=O)Nc1ccccc1-c1c(F)cnc2[nH]c3cnc(-c4cccnc4)cc3c12 [Example 70]", "Value Observed": "5.30 to 6.00"}
{"Compound": "CN1CCN(c2cccc(-c3cnc4[nH]c5cnc(-c6cccnc6)cc5c4c3)c2)CC1 [Example 139]", "Value Observed": "7.00 to 9.00"}
{"Compound": "c1cncc(-c2cc3c(cn2)[nH]c2ncc(-c4cn[nH]c4)cc23)c1 [Example 126]", "Value Observed": "7.00 to 9.00"}
{"Compound": "Fc1cnc2[nH]c3cnc(-c4cccnc4)cc3c2c1N1CCC(N2CCCC2)CC1 [Example 85]", "Value Observed": "7.00 to 9.00"}
{"Compound": "Fc1cncc(-c2cc3c(cn2)[nH]c2ncccc23)c1 [Example 42]", "Value Observed": "5.30 to 6.00"}
{"Compound": "CCN(CC)CCCn1cc(-c2cnc3[nH]c4cnc(-c5cccnc5)cc4c3c2)cn1 [Example 127]", "Value Observed": "7.00 to 9.00"}
{"Compound": "c1cncc(-c2cc3c(cn2)[nH]c2ncc(-c4ccc(N5CCOCC5)cc4)cc23)c1 [Example 121]", "Value Observed": "7.00 to 9.00"}
{"Compound": "c1cncc(-c2cc3c(cn2)[nH]c2ncc(-c4ccc(OCCCN5CCOCC5)cc4)cc23)c1 [Example 149]", "Value Observed": "7.00 to 9.00"}
{"Compound": "CC(C)N1CCN(c2ccc(-c3cnc4[nH]c5cnc(-c6cccnc6)cc5c4c3)cc2)CC1 [Example 122]", "Value Observed": "7.00 to 9.00"}
{"Compound": "CC(C)COC(=O)c1cnc2[nH]c3cnc(-c4cccnc4)cc3c2c1 [Example 18]", "Value Observed": "7.00 to 9.00"}
{"Compound": "CN1CCCN(c2c(F)cnc3[nH]c4cnc(-c5cccnc5)cc4c23)CC1 [Example 80]", "Value Observed": "6.00 to 7.00"}
{"Compound": "Nc1cnc2[nH]c3cnc(-c4cccnc4)cc3c2c1 [Example 109]", "Value Observed": "7.00 to 9.00"}
{"Compound": "c1cncc(-c2cc3c(cn2)[nH]c2ncc(-c4ccc(OCCCN5CCCCC5)cc4)cc23)c1 [Example 147]", "Value Observed": "7.00 to 9.00"}
{"Compound": "COc1cnc2[nH]c3cnc(-c4cnn(CCCCCN)c4)cc3c2c1 [Example 168]", "Value Observed": "6.00 to 7.00"}
{"Compound": "FC(F)(F)COc1cnc2[nH]c3cnc(-c4cccnc4)cc3c2c1 [Example 111]", "Value Observed": "7.00 to 9.00"}
{"Compound": "Fc1cnc2[nH]c3cnc(-c4cccnc4)cc3c2c1-c1ccc(OCCN2CCOCC2)cc1 [Example 99]", "Value Observed": "7.00 to 9.00"}
{"Compound": "CN(CCCC(=O)N1CCCC1)c1cnc2[nH]c3cnc(-c4cccnc4)cc3c2c1 [Example 12]", "Value Observed": "6.00 to 7.00"}
{"Compound": "Ic1cnc2[nH]c3cnc(-c4cccnc4)cc3c2c1 [Example 114]", "Value Observed": "6.00 to 7.00"}
{"Compound": "CC(C)(C)OC(=O)c1cnc2[nH]c3cnc(-c4cccnc4)cc3c2c1 [Example 5]", "Value Observed": "7.00 to 9.00"}
{"Compound": "CCOC(=O)/C=C/c1c(F)cnc2[nH]c3cnc(-c4cccnc4)cc3c12 [Example 29]", "Value Observed": "6.00 to 7.00"}
{"Compound": "COc1ccccc1-c1c(F)cnc2[nH]c3cnc(-c4cccnc4)cc3c12 [Example 63]", "Value Observed": "7.00 to 9.00"}
{"Compound": "CCN(CC)c1cnc2[nH]c3cnc(-c4cccnc4)cc3c2c1 [Example 11]", "Value Observed": "5.30 to 6.00"}
{"Compound": "CS(=O)(=O)Nc1ccc(-c2c(F)cnc3[nH]c4cnc(-c5cccnc5)cc4c23)cc1 [Example 22]", "Value Observed": "7.00 to 9.00"}
{"Compound": "COc1c(F)cnc2[nH]c3cnc(-c4cccnc4)cc3c12 [Example 105]", "Value Observed": "7.00 to 9.00"}
{"Compound": "Brc1cnc2[nH]c3cnc(-c4cccnc4)cc3c2c1 [Example 9]", "Value Observed": "6.00 to 7.00"}
{"Compound": "Fc1cnc2[nH]c3cnc(-c4cccnc4)cc3c2c1N1CCN(CCCN2CCCCC2)CC1 [Example 86]", "Value Observed": "7.00 to 9.00"}
{"Compound": "CCN(CC)CCCn1cc(-c2cc3c(cn2)[nH]c2ncc(OC)cc23)cn1 [Example 166]", "Value Observed": "6.00 to 7.00"}

Reference source: patent US20110178053A1
